This collection of values is drawn from PubChem BioAssay AID726.

- Target Under Test: 5-hydroxytryptamine receptor 1E (Homo sapiens)
- Assay Procedure: 5-HT1E receptor agonist potency, dose response, cell-based (AID 726)
- Condition Description: CHO 5-HT1E/Ga15 NFAT-bla, FRET reporter
Activity calls are given as the source filed them.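 How the source made its calls: active means EC50 at or below 10 µM, fitted or read by hand from inhibition at single concentrations; inactive means EC50 above 10 µM.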
Possible outcomes: Y = active, N = inactive

>  <Compound>
CCCCc1ccc2[nH]cc(CCN)c2c1

>  <Class Name>
Y

$$$$
>  <Compound>
CCCCN(CC)Cc1ccc(CNC(=O)Nc2ccc(OC)cc2OC)o1

>  <Class Name>
Y

$$$$
>  <Compound>
COC(=O)CC(=O)Cc1nc(N)nc(Nc2ccc(C)c(C)c2)n1

>  <Class Name>
N

$$$$
>  <Compound>
COc1ccc(CN2CCN(c3ccccc3F)CC2)c(OC)c1

>  <Class Name>
N

$$$$
>  <Compound>
COc1cc(CN2CCN(c3cccc(C)c3C)CC2)cc(OC)c1O

>  <Class Name>
N

$$$$
>  <Compound>
O=C(COC(=O)CCC1CCCC1)Nc1ccc(Cl)cn1

>  <Class Name>
N

$$$$
>  <Compound>
CSc1nc2ccc(NC(=O)C3CCCO3)cc2s1 (stereo not given)

>  <Class Name>
N

$$$$
>  <Compound>
CN(C)CCCn1c(NC(=O)C2CCCCC2)nc2ccccc21

>  <Class Name>
Y

$$$$
>  <Compound>
CN1CCN(/C(=N\O)c2nonc2N)CC1

>  <Class Name>
Y

$$$$
>  <Compound>
c1ccc2sc(C3CCCNC3)nc2c1 (stereo not given)

>  <Class Name>
Y

$$$$
>  <Compound>
Cc1cccc(NC(=O)C2CCCN(C(=O)Nc3ccccc3)C2)c1C (stereo not given)

>  <Class Name>
N

$$$$
>  <Compound>
CCOC(=O)c1cc2ccc(OC(=O)c3ccco3)cc2oc1=O

>  <Class Name>
Y

$$$$
>  <Compound>
CN(C)CCOC(=O)c1cn(Cc2ccccc2)c2ccccc12

>  <Class Name>
Y

$$$$
>  <Compound>
CCc1nn(C(C)C(=O)NCCN2CCN(c3cccc(C)c3C)CC2)c(=O)c2cc3occc3n12 (stereo not given)

>  <Class Name>
Y

$$$$
>  <Compound>
CCCCN(C)CCCNC(=O)Cn1c(=O)sc2ccccc21

>  <Class Name>
Y

$$$$
>  <Compound>
C[N+]1=C2CCCCCN2C(O)(c2ccccc2)C1 (stereo not given)

>  <Class Name>
Y

$$$$
>  <Compound>
Cc1cc(C(C)(C)C)c(O)c(C)c1CC1=NCCN1

>  <Class Name>
Y

$$$$
>  <Compound>
Cc1[nH]c2c(C(F)(F)F)cccc2c1CCN

>  <Class Name>
Y

$$$$
>  <Compound>
C1=C(c2c[nH]c3ccccc23)CCNC1

>  <Class Name>
Y

$$$$
>  <Compound>
Cn1c(-c2ccccc2)cnc1SCc1nc2ccccc2c(=O)[nH]1

>  <Class Name>
N

$$$$
>  <Compound>
CC(CCc1ccccc1)NC(=O)CSc1nc(N)cc(N)n1 (stereo not given)

>  <Class Name>
N

$$$$
>  <Compound>
CCOC(=O)C1CCN(C(c2cccnc2)c2c(NC(=O)c3ccco3)sc(C)c2C)CC1 (stereo not given)

>  <Class Name>
N

$$$$
>  <Compound>
CCc1ccc(NC(=O)Cn2c(SC)nc3ccccc32)cc1

>  <Class Name>
N

$$$$
>  <Compound>
Cc1[nH]c2c(Cl)cccc2c1CCN

>  <Class Name>
Y

$$$$
>  <Compound>
CCOC(=O)C1CCN(C(=O)Cc2c(C(=O)O)n(C)c3ccccc23)CC1

>  <Class Name>
N

$$$$
